experimentNotes: Solid stability of compositions 1-11 and compounds 1A-11A: main component content over time under different conditions (Example 37, Table 32)
Assay type: physicochemical
statedConditions: −25° C., 5 d
recordedEndpoint: main component content (%)
Write the answer as a number in %, unit excluded.

molecule	main component content, %
CC(C)C(C(=O)[O-])N(CC(O)C(O)C(O)C(O)CO)C(=S)[S][Na].[Na+] (stereo not drawn)	100.2

Task: Could you share which main component content value was measured for COc1ccc(CC(C(=O)[O-])N(CC(O)C(O)C(O)C(O)CO)C(=S)[S][Na])cc1.[Na+] (stereo not drawn) ?
Output: 100.1

Task: Check O=C([O-])C(Cc1cncs1)N(CC(O)C(O)C(O)C(O)CO)C(=S)[S][Na].[Na+] (stereo not drawn) too.
Output: 100.7
